Cited source: patent US8889676B2

Please go through the items and note down their MIC.
- Tested on: S. pneumoniae ATCC 49619
- procedureSummary: Minimal inhibitory concentration (MIC) by broth microdilution (CLSI M7-A7)
- Format: cell-based, Streptococcus pneumoniae
- testSettings: Streptococcus pneumoniae, ATCC49619; cation-adjusted Mueller Hinton Broth supplemented with 3% (v/v) lysed horse blood; microdilution method
Answers are plain numbers, in µg/mL.

compound	MIC / µg/mL
CCNC(=O)Nc1cc2c(-c3ccnc(CO)c3)ccc(CNC(=O)OCCOC)c2cn1 [Example 122]	4
CCNC(=O)Nc1cc2c(-c3ccncc3)ccc(CNC(=O)Cn3cccn3)c2cn1 [Example 70]	0.5
CCNC(=O)Nc1cc2c(Cl)ccc(CNC(=O)OC)c2cn1 [Example 159]	1
CCNC(=O)Nc1cc2cccc(CNC(=O)c3ncc[nH]3)c2cn1 [Example 16]	4

Exercise: I would be grateful if you could share the reported MIC for CCNC(=O)Nc1cc2c(-c3ccncc3)ccc(CNC(=O)CCC3CC3)c2cn1 [Example 130] .
Solution: 0.5

---

- System: S. pneumoniae ATCC 49619
- procedureSummary: Minimal inhibitory concentration (MIC) by broth microdilution (CLSI M7-A7)
- Assay type: cell-based, Streptococcus pneumoniae
- testSettings: Streptococcus pneumoniae, ATCC49619; cation-adjusted Mueller Hinton Broth supplemented with 3% (v/v) lysed horse blood; microdilution method
Please go through the items and note down their MIC.
Answers are plain numbers, in µg/mL.

Answered examples (2):
structureString	assaySystem	scaleUnit	MIC
CCNC(=O)Nc1cc2c(-c3ccnc(N4CCCC4)c3)ccc(CNC(=O)OC)c2cn1	S. pneumoniae ATCC 49619	µg/mL	4
CCNC(=O)NCc1cccc2cc(NC(=O)NCC)ncc12	S. pneumoniae ATCC 49619	µg/mL	4

Hi team, please reply with MIC for each item in this list.
1. C#CCOC(=O)NCc1ccc(-c2cncnc2)c2cc(NC(=O)NCC)ncc12.Cl
2. CCNC(=O)Nc1cc2c(-c3cc(F)nc(F)c3)ccc(CNC(=O)OC)c2cn1
3. CCNC(=O)Nc1cc2cccc(CNC(=O)OCc3ccccc3)c2cn1.Cl
4. CCNC(=O)Nc1cc2c(-c3ccnc(C)c3)ccc(CNC(=O)CCOC)c2cn1
5. CCNC(=O)Nc1cc2c(-c3ccncc3)ccc(CNC(=O)CCC(N)=O)c2cn1
6. CCNC(=O)Nc1cc2c(-c3ccncc3)ccc(CNC(=O)CCCO)c2cn1
7. CCNC(=O)Nc1cc2c(-c3ccncc3)ccc(CNC(=O)c3ncc[nH]3)c2cn1
8. CCNC(=O)Nc1cc2c(-c3ccncc3)ccc(CNC(=O)C3CC3)c2cn1

Solution:
[1, 1, 4, 1, 4, 2, 0.25, 0.25]

Hi team, please reply with MIC for each item in this list.
1. CCNC(=O)Nc1cc2c(-c3ccncc3)ccc(CNC(=O)CC(C)C)c2cn1
2. C#CCOC(=O)NCc1ccc(-c2ccnnc2)c2cc(NC(=O)NCC)ncc12
3. CCNC(=O)Nc1cc2c(-c3ccncc3)ccc(CNC(=O)c3cnc[nH]3)c2cn1

Solution:
1. 0.25
2. 8
3. 2

Hi team, please reply with MIC for each item in this list.
1. CCNC(=O)Nc1cc2c(-c3ccncc3)ccc(CNC(=O)OCCNC(=O)OC(C)(C)C)c2cn1
2. CCNC(=O)Nc1cc2c(-c3cc(C)nc(C)c3)ccc(CNC(=O)OC)c2cn1
3. C#CC(=O)NCc1ccc(-c2ccncc2)c2cc(NC(=O)NCC)ncc12
4. C#CCOC(=O)NCc1ccc(-c2ccncc2)c2cc(NC(=O)NCC)ncc12
5. C#CCOC(=O)NCc1ccc(-c2ccc(CO)cc2)c2cc(NC(=O)NCC)ncc12.Cl
6. CCNC(=O)Nc1cc2c(-c3ccncc3)ccc(CNC(=O)CCN(C)C(=O)OC(C)(C)C)c2cn1

Solution:
[0.5, 1, 0.25, 0.25, 0.5, 2]

---

- Tested on: S. pneumoniae ATCC 49619
- procedureSummary: Minimal inhibitory concentration (MIC) by broth microdilution (CLSI M7-A7)
- Type: cell-based, Streptococcus pneumoniae
- testSettings: Streptococcus pneumoniae, ATCC49619; cation-adjusted Mueller Hinton Broth supplemented with 3% (v/v) lysed horse blood; microdilution method
reportedEndpoint: MIC (µg/mL)
Give bare numbers, in µg/mL.

Answered examples (7):
compound	assaySystem	reportedEndpoint	scaleUnit	resultValue
CCNC(=O)Nc1cc2c(-c3ccncc3)ccc(CNC(=O)OCc3cccnc3)c2cn1 [Example 42]	S. pneumoniae ATCC 49619	MIC	µg/mL	0.5
CCNC(=O)Nc1cc2c(-c3ccncc3)ccc(CNC(=O)CCNC(=O)OC(C)(C)C)c2cn1 [Example 49]	S. pneumoniae ATCC 49619	MIC	µg/mL	0.5
CCNC(=O)Nc1cc2c(-c3ccnc(CCC(=O)NC)c3)ccc(CNC(=O)OC)c2cn1 [Example 195]	S. pneumoniae ATCC 49619	MIC	µg/mL	4
CCNC(=O)Nc1cc2c(-c3ccnc(CC(=O)OC(C)(C)C)c3)ccc(CNC(=O)OCCOC)c2cn1 [Example 178]	S. pneumoniae ATCC 49619	MIC	µg/mL	2
CCNC(=O)Nc1cc2cccc(CNC(=O)OCc3ccccn3)c2cn1.Cl [Example 34]	S. pneumoniae ATCC 49619	MIC	µg/mL	4
C#CCOC(=O)NCc1ccc(-c2cccc(CC(=O)O)c2)c2cc(NC(=O)NCC)ncc12.Cl [Example 135]	S. pneumoniae ATCC 49619	MIC	µg/mL	4
CCNC(=O)Nc1cc2c(-c3ccnc(OC(C)(C)C)c3)ccc(CNC(=O)OC)c2cn1 [Example 167]	S. pneumoniae ATCC 49619	MIC	µg/mL	4

Now turn to the next compound.
Exercise: Lookup: MIC / S. pneumoniae ATCC 49619 / C#CC(=O)NCc1ccc(-c2ccnc(C)c2)c2cc(NC(=O)NCC)ncc12 [Example 155]
Solution: 0.5

---

- Tested on: S. pneumoniae ATCC 49619
- procedureSummary: Minimal inhibitory concentration (MIC) by broth microdilution (CLSI M7-A7)
- Type: cell-based, Streptococcus pneumoniae
- testSettings: Streptococcus pneumoniae, ATCC49619; cation-adjusted Mueller Hinton Broth supplemented with 3% (v/v) lysed horse blood; microdilution method
- Experimental: Minimal inhibitory concentrations (MICs; mg/l) were determined in cation-adjusted MuellerHinton Broth (supplemented with 3% (v/v) lysed horse blood for testing Streptococcus pneumoniae) by a microdilution method following the description given in “Methods for Dilution Antimicrobial Susceptibility Tests for Bacteria that Grow Aerobically”, Approved standard, 7th ed., a Clinical and Laboratory Standards Institute (CLSI) Document M7-A7, Wayne, Pa., USA, 2006.
Please go through the items and note down their MIC.
Give bare numbers, in µg/mL.

Answered examples (4):
compound	scaleUnit	MIC
CCNC(=O)Nc1cc2c(-c3ccnc(OCC)c3)ccc(CNC(=O)OC)c2cn1 [Example 166]	µg/mL	2
CCNC(=O)Nc1cc2c(-c3ccncc3)ccc(CNC(=O)CCCN(C)C(=O)OC(C)(C)C)c2cn1 [Example 62]	µg/mL	1
C#CC(C)OC(=O)NCc1ccc(-c2ccncc2)c2cc(NC(=O)NCC)ncc12 (racemic) [Example 108]	µg/mL	0.25
C#CCCC(=O)NCc1cccc2cc(NC(=O)NCC)ncc12 [Example 17]	µg/mL	8

Hi team, please reply with MIC for each item in this list.
1. CCNC(=O)Nc1cc2c(-c3ccncc3)ccc(CNC(=O)OCC[C@H]3CCCNC3)c2cn1.Cl [Example 100]
2. CCNC(=O)Nc1cc2cccc(CNC(=O)CN(C)C)c2cn1 [Example 19]

Solution:
[8, 8]

Hi team, please reply with MIC for each item in this list.
1. C#CC(=O)NCc1cccc2cc(NC(=O)NCC)ncc12 [Example 9]
2. CCNC(=O)Nc1cc2c(-c3ccncc3)ccc(CNC(=O)OC(C)(C)C)c2cn1 [Example 76]
3. CCNC(=O)Nc1cc2c(-c3ccnc(F)c3)ccc(CNC(=O)OCCOC)c2cn1 [Example 118]

Solution:
2
0.25
0.5

---

- Tested on: S. pneumoniae ATCC 49619
- procedureSummary: Minimal inhibitory concentration (MIC) by broth microdilution (CLSI M7-A7)
- Format: cell-based, Streptococcus pneumoniae
- testSettings: Streptococcus pneumoniae, ATCC49619; cation-adjusted Mueller Hinton Broth supplemented with 3% (v/v) lysed horse blood; microdilution method
Please go through the items and note down their MIC.
One number for each entry, in µg/mL.

Answered examples (5):
compound	scaleUnit	resultValue
CCNC(=O)Nc1cc2c(-c3ccnc(N)c3)ccc(CNC(=O)OC)c2cn1 [Example 163]	µg/mL	0.5
CCNC(=O)Nc1cc2c(-c3ccnc(CCC(=O)N(C)C)c3)ccc(CNC(=O)OC)c2cn1 [Example 196]	µg/mL	4
CCNC(=O)Nc1cc2c(-c3ccncc3)ccc(CNC(=O)OCCN3CCOCC3)c2cn1.Cl [Example 91]	µg/mL	1
CCNC(=O)Nc1cc2c(-c3cc(C)nc(C)c3)ccc(CNC(=O)OCCOC)c2cn1 [Example 116]	µg/mL	1
CCNC(=O)Nc1cc2c(-c3ccnc(OC(C)C)c3)ccc(CNC(=O)OC)c2cn1 [Example 173]	µg/mL	4

Exercise: Lookup: MIC / S. pneumoniae ATCC 49619 / CCNC(=O)Nc1cc2c(-c3ccncc3)ccc(CNC(=O)OCCC(=O)OC)c2cn1.Cl [Example 105]
Solution: 4
